Test system: LMP7 (Homo sapiens)
Construct: using MOLT-4 cell lysate as the enzyme source of LMP7; endogenous in cells; host or cells: MOLT-4 (human acute lymphoblastic leukemia cells)
Assay: Cytological inhibitory activity on LMP7 in MOLT-4 cells
Format: cell-based
Condition: incubation for 2 hours with compound, read-out: Cytological activity data LMP7 Activity (MOLT-4Cell)
Observed property: IC50 (nM)

{"Molecule": "C[C@@H]1COB([C@H](Cc2coc3ccccc23)NC(=O)C(=O)Nc2cnccn2)O1", "Reading unit": "nM", "IC50": 0.88}
{"Molecule": "O=C(O)CC1(CC(=O)O)OB([C@H](Cc2coc3ccccc23)NC(=O)C(=O)Nc2cnccn2)OC1=O", "Reading unit": "nM", "IC50": 1.26}

a: CC1(C)COB([C@H](Cc2coc3ccccc23)NC(=O)C(=O)Nc2cnccn2)OC1
b: CC1(C)[C@@H]2C[C@H]3OB([C@H](Cc4coc5ccccc45)NC(=O)C(=O)Nc4cnccn4)O[C@@]3(C)[C@H]1C2
Request: Param pair: a , b . Output: the one whose IC50 is numerically greater. Respond using the label that marks the chosen record.
Result: a
(a: 1.35 nM, b: 0.8 nM)

* * *

Assay: Animal pharmacokinetic study in rats, single gavage
Format: in vivo
Condition: rat, po; male rats, single gavage 5 mg/kg, plasma
Observed property: AUC(0-inf) (ng·h/mL)

{"Compound": "O=C(Nc1nc2ccccc2s1)C(=O)N[C@@H](Cc1coc2ccccc12)B(O)O [Ex. 27]", "Reading unit": "ng·h/mL", "AUC(0-inf)": 24200}
{"Compound": "O=C(N[C@@H](Cc1coc2ccccc12)B(O)O)C(=O)N1CCOCC1 [Ex. 5]", "Reading unit": "ng·h/mL", "AUC(0-inf)": 20900}
{"Compound": "O=C(Nc1ccccn1)C(=O)N[C@@H](Cc1coc2ccccc12)B(O)O [Ex. 12]", "Reading unit": "ng·h/mL", "AUC(0-inf)": 26500}
{"Compound": "Cc1cnc(NC(=O)C(=O)N[C@@H](Cc2coc3ccccc23)B(O)O)s1 [Ex. 32]", "Reading unit": "ng·h/mL", "AUC(0-inf)": 22200}

a: O=C(Nc1cc(Cl)ccn1)C(=O)N[C@@H](Cc1coc2ccccc12)B(O)O [Ex. 49]
b: O=C(Nc1nccs1)C(=O)N[C@@H](Cc1coc2ccccc12)B(O)O [Ex. 25]
Request: For this pair, a and b , which shows a numerically higher AUC(0-inf)? Bench note: the answer is the label of the chosen record.
Result: b
(b: 108000 ng·h/mL, a: 25400 ng·h/mL)

* * *

Test system: LMP7 (Homo sapiens)
Construct: using MOLT-4 cell lysate as the enzyme source of LMP7; endogenous in cells; host or cells: MOLT-4 (human acute lymphoblastic leukemia cells)
Assay: Enzymatic inhibitory activity on LMP7 (MOLT-4 cell lysate, Ac-ANW-AMC substrate)
Format: biochemical
Condition: 1 hour pre-incubation
pIC50: −log10 of the molar value.
Observed property: pIC50

I: O=C(N[C@@H]1CCOC1)C(=O)N[C@@H](Cc1coc2ccccc12)B(O)O
II: O=C(Nc1ccc(F)cc1F)C(=O)N[C@@H](Cc1coc2ccccc12)B(O)O
III: CCN(CC)C(=O)C(=O)N[C@@H](Cc1coc2ccccc12)B(O)O
IV: Cc1cnc(NC(=O)C(=O)N[C@@H](Cc2coc3ccccc23)B(O)O)cn1
Request: Order each entry by recorded pIC50, climbing from the minimum. Rank them, then answer with their labels in that order.
Result: III, IV, I, II

P: O=C(N[C@@H](Cc1coc2ccccc12)B(O)O)C(=O)N1C2CCC1COC2
Q: Cn1cccc(NC(=O)C(=O)N[C@@H](Cc2coc3ccccc23)B(O)O)c1=O
Request: Just curious, which one has the larger pIC50 reading, P or Q ? Your answer should be the label attached to the chosen record.
Result: Q

1: O=C(Nc1ncc(F)s1)C(=O)N[C@@H](Cc1coc2ccccc12)B(O)O
2: O=C(Nc1cccc2c1OCC2)C(=O)N[C@@H](Cc1coc2ccccc12)B(O)O
3: O=C(N[C@@H](Cc1coc2ccccc12)B(O)O)C(=O)N1CCOCC1
4: CC1(C)COB([C@H](Cc2coc3ccccc23)NC(=O)C(=O)Nc2cnccn2)OC1
Request: Order the records so the highest pIC50 appears first and the lowest last. # respond with the labels, arranged in the requested order
Result: 4, 2, 1, 3
(4: 8.93, 2: 8.42, 1: 8.13, 3: 7.81)
